Please respond with reported Km for every item in the list.
tested on: PfUGT92A8; assay: UPLC glycosylation assay, […] nm; type: biochemical, Periploca forrestii; details: UDP-glucose as sugar donor; 10 mM PBS pH 8.0, 37 °C
Give bare numbers, in µM.

Please review the following examples before continuing.
Req: Give Km for O=C1CC(O)(c2ccc(O)cc2)Oc2cc(O)cc(O)c21 (centres unmarked) [2-Hydroxynaringenin]
Resp: 51.4

Req: Give Km for O=c1cc(-c2ccc(O)c(O)c2)oc2cc(O)cc(O)c12
Resp: 252

Req: Give Km for O=c1cc(-c2ccc(O)c(O)c2)oc2c([C@@H]3O[C@H](CO)[C@@H](O)[C@H](O)[C@H]3O)c(O)cc(O)c12
Resp: 218

Dear colleague, could you please provide Km for the molecules listed below?
1. O=c1cc(-c2ccc(O)c(O)c2)oc2cc(O)c([C@@H]3O[C@H](CO)[C@@H](O)[C@H](O)[C@H]3O)c(O)c12
2. O=c1cc(-c2ccc(O)cc2)oc2cc(O)c([C@@H]3O[C@H](CO)[C@@H](O)[C@H](O)[C@H]3O)c(O)c12
3. O=c1cc(-c2ccc(O)cc2)oc2cc(O)cc(O)c12
4. O=c1cc(-c2ccc(O)cc2)oc2c([C@@H]3O[C@H](CO)[C@@H](O)[C@H](O)[C@H]3O)c(O)cc(O)c12
5. O=C(CCc1ccc(O)cc1)c1c(O)cc(O)cc1O

Resp:
1: 134; 2: 78.2; 3: 148; 4: 94.2; 5: 34.7

---

test system: PfUGT74B4; assay: UPLC glycosylation assay, […] nm; format: biochemical, Periploca forrestii; conditions: UDP-glucose as sugar donor; 10 mM PBS pH 8.0, 37 °C
Please respond with reported log10 Km for every item in the list.
Annotation: log10 of Km, µM basis.

Please review the following examples before continuing.
Req: For PfUGT74B4, give the measured log10 Km of the entry O=C1CC(O)(c2ccc(O)cc2)Oc2cc(O)cc(O)c21 (centres unmarked) [2-Hydroxynaringenin]
Resp: 1.68

Req: For PfUGT74B4, give the measured log10 Km of the entry O=C(CCc1ccc(O)cc1)c1c(O)cc(O)cc1O [Phloretin]
Resp: 1.66

Req: For PfUGT74B4, give the measured log10 Km of the entry O=c1cc(-c2ccc(O)c(O)c2)oc2cc(O)c([C@@H]3O[C@H](CO)[C@@H](O)[C@H](O)[C@H]3O)c(O)c12 [Isoorientin]
Resp: 1.81

Req: For PfUGT74B4, give the measured log10 Km of the entry O=c1cc(-c2ccc(O)cc2)oc2cc(O)c([C@@H]3O[C@H](CO)[C@@H](O)[C@H](O)[C@H]3O)c(O)c12 [Isovitexin]
Resp: 1.77

Req: For PfUGT74B4, give the measured log10 Km of the entry O=c1cc(-c2ccc(O)c(O)c2)oc2cc(O)cc(O)c12 [Luteolin]
Resp: 1.77

Dear colleague, could you please provide log10 Km for the compounds listed below?
1. COc1ccc(-c2cc(=O)c3c(O)cc(O)cc3o2)cc1 [Acacetin]
2. O=c1cc(-c2ccc(O)cc2)oc2cc(O)cc(O)c12 [Apigenin]
3. O=c1cc(-c2ccc(O)cc2)oc2c([C@@H]3O[C@H](CO)[C@@H](O)[C@H](O)[C@H]3O)c(O)cc(O)c12 [Vitexin]

Resp:
1. 0.35
2. 1.70
3. 2.49

Source listed as paper PMC10940802.
